# reported Treprostinil Concentration 120 min; entries follow
Experiment: Stability in cryopreserved hepatocytes, dog
readout-label: Treprostinil Concentration 120 min (µM)

>  <compound>
CCCCCC(CCC1C(OC(=O)CC)CC2Cc3c(cccc3OCC(=O)O)CC21)OC(=O)CC (stereo not shown) [Prodrug LXX, treprostinil dipropionate]

>  <readout-units>
µM

>  <endpoint-value>
0.445

$$$$
>  <compound>
CCCCCC(CCC1C(O)CC2Cc3c(cccc3OCC(=O)O)CC21)OC(=O)CC (stereo not shown) [Prodrug LV]

>  <readout-units>
µM

>  <endpoint-value>
0.53

$$$$
>  <compound>
CCCCCC(CCC1C(O)CC2Cc3c(cccc3OCC(=O)O)CC21)OC(C)=O (stereo not shown) [Prodrug XLIII]

>  <readout-units>
µM

>  <endpoint-value>
0.4

$$$$
>  <compound>
CCCCCC(CCC1C(O)CC2Cc3c(cccc3OCC(=O)O)CC21)OP(=O)(O)O (stereo not shown) [Prodrug VI]

>  <readout-units>
µM

>  <endpoint-value>
0.548

$$$$
